Reference source: patent US10556892B2

assay: Pharmacokinetics study in mice; format: in vivo, mouse; conditions: C57B6/J, 30 mg/kg; C57 mouse, po 30 mpk, brain
measure.name: half-life (h)
One number for each entry, in h.

Qu. Provide measured half-life value, entry: CCS(=O)(=O)c1ccccc1C(=O)N1CCN(c2nc3ccc(F)cc3s2)C[C@@H]1C
Ans. 3.14

###

test: Pharmacokinetics study in mice; assay type: in vivo, mouse; details: C57B6/J, 10 mg/kg; C57 mouse, po 10 mpk, plasma
measure.name: Cmax (ng/mL)
Answers are plain numbers, in ng/mL.

Qu. Provide measured Cmax value, entry: CCS(=O)(=O)c1ccccc1C(=O)N1CCN(c2nc3ccc(F)cc3s2)C[C@@H]1C
Ans. 1470

###

test: Pharmacokinetics study in mice; format: in vivo, mouse; details: 3 mg/kg; CD1 mouse, iv 3 mpk, plasma; read-out: Vss
measure.name: Vd (L/kg)
Numbers only, in L/kg.

Qu. Provide measured Vd value, entry: CCS(=O)(=O)c1ccccc1C(=O)N1CCN(c2nc3ccc(F)cc3s2)C[C@@H]1C [Compound 8]
Ans. 2.4

###

experiment: Pharmacokinetics study in mice; assay type: in vivo, mouse; conditions: C57B6/J, 30 mg/kg; C57 mouse, po 30 mpk, brain
measure.name: Cmax (ng/mL)
Give bare numbers, in ng/mL.

Qu. Provide measured Cmax value, entry: CCS(=O)(=O)c1ccccc1C(=O)N1CCN(c2nc3ccc(F)cc3s2)C[C@@H]1C [Compound 8]
Ans. 2240

###

experiment: In vitro metabolic stability, mouse liver microsomes; format: in vitro ADME; set-up: dose or concentration left out as unconfirmed; settings: pH 7.4, read-out: m-LM stab. t1/2
Give measured half-life for each item. Keep answers brief.

molecule | result
O=C(c1ccccc1S(=O)(=O)C1COC1)N1CCN(c2nc3ccc(F)cc3s2)CC1 [Compound 13] | > 1 h
CCS(=O)(=O)c1ccccc1C(=O)N1CCN(c2nc3ccc(F)c(F)c3s2)CC1 [Cmpd 35] | > 1 h
CCS(=O)(=O)c1ccccc1C(=O)N1CCN(c2nc3ccc(F)cc3o2)C[C@@H]1C [Compound 26] | > 1 h

Shift focus to the following entry.
Qu. Provide measured half-life value, entry: O=C(c1ccccc1S(=O)(=O)C1CCC1)N1CCN(c2nc3ccc(F)cc3s2)CC1 [Compound 12]
Ans. > 1 h

###

molecular target: h-AC (Homo sapiens (Human)); experiment: biochemical; conditions: read-out: h-AC inh (%) 30 μM
Give measured inhibition at 30 µM for each item. Keep answers brief.
One number for each entry, in %.

compound | units | number
O=C(c1ccccc1S(=O)(=O)C1CC1)N1CCN(c2nc3ccc(F)cc3s2)CC1 | % | -1
CCS(=O)(=O)c1ccccc1C(=O)N1CCN(c2nc3cccc(F)c3s2)CC1 | % | -3
CCS(=O)(=O)c1ccccc1C(=O)N1CCN(c2nc3ccc(F)cc3s2)C(C)C1 (stereo not drawn) | % | 25
CCCS(=O)(=O)c1ccccc1C(=O)N1CCN(c2nc3ccc(F)cc3s2)CC1 | % | 2
CCS(=O)(=O)c1ccccc1C(=O)N1CCN(c2nc3ccc(F)c(F)c3s2)CC1 | % | 0

Please give inhibition at 30 µM, item by item, for the list that follows.
1. C[C@H]1CN(c2nc3ccc(F)cc3o2)CCN1C(=O)c1ccccc1S(=O)(=O)C1CC1
2. CCS(=O)(=O)c1ccccc1C(=O)N1CCN(c2nc3ccccc3o2)CC1
3. CCS(=O)(=O)c1ccccc1C(=O)N1CCN(c2nc3c(F)cc(F)cc3s2)CC1
4. CCS(=O)(=O)c1ccccc1C(=O)N1CCN(c2nc3ccc(F)cc3o2)C[C@@H]1C

Ans.
1: -12; 2: 0; 3: 4; 4: -12
